Reference source for all entries: the supplement of paper PMC5908809

Tested on: normal primary NK cells, pool 3 (3 donors) (IL-2 2.5 ng/mL)
assay_remarks: percent inhibition of viability; higher = more inhibition;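 also: normalised to DMSO-only wells as negative and benzethonium chloride as positive control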
condition_context: 72 h; 1 nM
Below: a set of entries, each annotated with reported percent inhibition of viability.
The response must be a number in % with no trailing unit.

Illustrative cases are given below, each with its answer.
• C[C@@H](C(=O)O)c1ccc(-c2ccccc2)c(F)c1 [Tarenflurbil] (max concentration tested 10000 nM) = -14.1
• CN(C)CCN1C(=O)c2cccc3cc(N)cc(c23)C1=O [Amonafide] (max concentration tested 10000 nM) = 5.44

For the molecule CNC(=O)c1ccccc1Sc1ccc2c(/C=C/c3ccccn3)n[nH]c2c1 [Axitinib] (max concentration tested 10000 nM) , the measured percent inhibition of viability on normal primary NK cells, pool 3 (3 donors) (IL-2 2.5 ng/mL) was -8.62

###

System: normal primary NK cells, pool 1 (3 donors) (IL-2 2.5 ng/mL)
assay_remarks: percent inhibition of viability; higher = more inhibition
condition_context: 72 h; 100 nM
molecules and their reported percent inhibition of viability
API: value field is a number in %; no unit string.

These recorded examples may help you get a feel for the data.
- CC(C)NC[C@@H](C(=O)N1CCN(c2ncnc3c2[C@H](C)C[C@H]3O)CC1)c1ccc(Cl)cc1 [GDC-0068] (max concentration tested 10000 nM): 2.75
- CC/C(=C(\c1ccc(O)cc1)c1ccc(OCCN(C)C)cc1)c1ccccc1 [4-hydroxytamoxifen] (max concentration tested 10000 nM): -1.85
- O=C1NC(=O)[C@@H](c2cn3c4c(cccc24)CCC3)[C@@H]1c1c[nH]c2ccccc12 [Tivantinib] (max concentration tested 1000 nM): -8.4

Please look at the following molecule next.
O=C(O)c1ccc(-c2c[nH]c3ncc(-c4ccccc4)cc23)cc1C1CCCC1 (max concentration tested 10000 nM) on normal primary NK cells, pool 1 (3 donors) (IL-2 2.5 ng/mL) gives percent inhibition of viability = 9.09

###

System: normal primary NK cells, pool 1 (3 donors) (IL-2 2.5 ng/mL)
assay_remarks: percent inhibition of viability; higher = more inhibition
condition_context: 72 h; 1 nM
Item-by-item account of percent inhibition of viability

So for CC1(C)CCC(c2ccc(Cl)cc2)=C(CN2CCN(c3ccc(C(=O)NS(=O)(=O)c4ccc(N[C@H](CCN5CCOCC5)CSc5ccccc5)c(S(=O)(=O)C(F)(F)F)c4)cc3)CC2)C1 [Navitoclax] (max concentration tested 10000 nM) , the logged percent inhibition of viability turned out to be -16.8%

Data point: CS(=O)(=O)N1CCN(Cc2cc3nc(-c4cccc5[nH]ncc45)nc(N4CCOCC4)c3s2)CC1 [Pictilisib] (max concentration tested 10000 nM) ; percent inhibition of viability = -12%

percent inhibition of viability reading for Cc1c(N)nc([C@H](CC(N)=O)NC[C@H](N)C(N)=O)nc1C(=O)N[C@H](C(=O)N[C@H](C)[C@@H](O)[C@H](C)C(=O)N[C@H](C(=O)NCCc1nc(-c2nc(C(=O)NCCC[S+](C)C)cs2)cs1)[C@@H](C)O)[C@@H](OC1OC(CO)C(O)C(O)C1OC1OC(CO)C(O)C(OC(N)=O)C1O)c1cnc[nH]1 (some centres undefined) [Bleomycin] (max concentration tested 10000 nM) : -8.98%

Value of percent inhibition of viability reported for the compound COc1nc(N)nc2c1ncn2[C@@H]1O[C@H](CO)[C@@H](O)[C@@H]1O [Nelarabine] (max concentration tested 10000 nM) is -10.4%

###

Test system: IMC-1 (IL-2 20 ng/mL)
assay_remarks: percent inhibition of viability; higher = more inhibition
condition_context: 72 h; 10 nM
measurement_type: percent inhibition of viability

Examples with answers:
• CC(C)n1cnc2c(NCCc3ccc(O)cc3)nc(-c3csc4ccccc34)nc21 [StemRegenin 1] (max concentration tested 10000 nM) = -2.1%
• NC(=O)Nc1cc(-c2cccc(F)c2)sc1C(=O)N[C@H]1CCCNC1 [AZD7762] (max concentration tested 1000 nM) = -2.17%
• CC[C@]1(O)C[C@H]2CN(CCc3c([nH]c4ccccc34)[C@@](C(=O)OC)(c3cc4c(cc3OC)N(C=O)[C@H]3[C@@](O)(C(=O)OC)[C@H](OC(C)=O)[C@]5(CC)C=CCN6CC[C@]43[C@@H]65)C2)C1 [Vincristine] (max concentration tested 1000 nM) = 99.6%
• CCn1c(C(=O)N(C2CC2)C2CC2)cc2c3c(ncn3C)c(Nc3cc(C)n(C)n3)nc21 (max concentration tested 10000 nM) = 2.69%

Entry CO[C@H]1C[C@@H]2CC[C@@H](C)[C@@](O)(O2)C(=O)C(=O)N2CCCC[C@H]2C(=O)O[C@H]([C@H](C)C[C@@H]2CC[C@@H](OCCO)[C@H](OC)C2)CC(=O)[C@H](C)/C=C(\C)[C@@H](O)[C@@H](OC)C(=O)[C@H](C)C[C@H](C)/C=C/C=C/C=C/1C [Everolimus] (max concentration tested 100 nM) ; percent inhibition of viability = -39.5%

What the record says about C[C@]12O[C@H](C[C@]1(O)CO)n1c3ccccc3c3c4c(c5c6ccccc6n2c5c31)CNC4=O [Lestaurtinib] (max concentration tested 1000 nM) : percent inhibition of viability is -22.2%

COc1nc(N)nc2c1ncn2[C@@H]1O[C@H](CO)[C@@H](O)[C@@H]1O [Nelarabine] (max concentration tested 10000 nM) has a reported percent inhibition of viability of -1.52%

The recorded percent inhibition of viability for entry Nc1nc(OCc2cc(Br)cs2)c2[nH]cnc2n1 [Lomeguatrib] (max concentration tested 10000 nM) equals -6.71%

# percent inhibition of viability (compound: CC/C(=C(\c1ccccc1)c1ccc(OCCN(C)C)cc1)c1ccccc1 [Tamoxifen] (max concentration tested 10000 nM) ) is 1.26%

// sample Cc1cc2c(F)c(Oc3ncnn4cc(OC[C@@H](C)O)c(C)c34)ccc2[nH]1 [Brivanib] (max concentration tested 1000 nM) , its percent inhibition of viability was -10.1%

Record summary for CC1(COc2ccc3c(c2)ncn3-c2ccc3cccc(N4CCC(N)CC4)c3n2)COC1 [Crenolanib] (max concentration tested 10000 nM) : reported percent inhibition of viability = 1.06%
